Recorded measurements of Allo DC/T IFN-γ Max, one per entry
- SYSTEM NAME: human CD40 on cells (human, UniProt P25942 21-277)
- Sequence (P25942 21-277): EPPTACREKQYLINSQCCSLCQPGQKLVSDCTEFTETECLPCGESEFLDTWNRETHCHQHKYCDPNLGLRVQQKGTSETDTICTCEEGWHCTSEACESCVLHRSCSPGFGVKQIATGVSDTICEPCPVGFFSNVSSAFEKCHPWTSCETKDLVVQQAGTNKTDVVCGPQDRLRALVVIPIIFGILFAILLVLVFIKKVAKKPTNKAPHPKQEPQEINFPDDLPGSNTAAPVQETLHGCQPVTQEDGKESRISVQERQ
- EXPERIMENT SUMMARY: cell-based or functional assay
Could you give me the number in pg/mL? Just the number is fine.

Guide cases for Allo DC/T IFN-γ Max, answers given:
INSERT INTO assay_data (binder, parameter, observed_result) VALUES
  ('Antibody clone A5 (antibody, human IgG1, lambda, V domains shown) VH: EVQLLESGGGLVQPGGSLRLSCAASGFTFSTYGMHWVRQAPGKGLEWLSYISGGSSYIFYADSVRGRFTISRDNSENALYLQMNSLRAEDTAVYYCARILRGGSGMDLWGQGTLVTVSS VL: QSVLTQPPSASGTPGQRVTISCTGSSSNIGAGYHVYWYQQLPGTAPKLLIYGSINRPSGVPDRFSGSKSGTSGSLAISGLRSEDEADYYCAAWDSSSSGLVFGGGTKLTVLG', 'Allo DC/T IFN-γ Max', 9.5),
  ('Antibody clone H11 (antibody, human IgG1, lambda, V domains shown, also called H11 ANTI-CD40 ANTIBODY) VH: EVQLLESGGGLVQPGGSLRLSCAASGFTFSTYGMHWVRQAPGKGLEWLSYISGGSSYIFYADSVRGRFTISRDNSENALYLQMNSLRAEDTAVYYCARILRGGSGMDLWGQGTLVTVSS VL: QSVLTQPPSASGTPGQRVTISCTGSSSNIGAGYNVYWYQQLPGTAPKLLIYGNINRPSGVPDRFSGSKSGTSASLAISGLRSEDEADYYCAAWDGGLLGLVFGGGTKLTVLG', 'Allo DC/T IFN-γ Max', 9.5),
  ('Antibody B44 (antibody, V domains shown, Parent agonistic anti-CD40 antibody from the n-CoDeR library; Run alongside the IgG clones as ''B44 antibody'' and detected with anti-human Ig on RAMOS cells; also called B44 antibody; original anti-CD40 antibody) VH: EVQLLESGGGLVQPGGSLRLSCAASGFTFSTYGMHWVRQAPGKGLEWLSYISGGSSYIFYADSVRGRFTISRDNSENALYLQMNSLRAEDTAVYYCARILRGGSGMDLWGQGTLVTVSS VL: QSVLTQPPSASGTPGQRVTISCTGSSSNIGAGYDVYWYQQLPGTAPKLLIYGNINRPSGVPDRFSGSKSGTSASLAISGLRSEDEADYYCAAWDDSLSGLVFGGGTKLTVLG', 'Allo DC/T IFN-γ Max', 8.7),
  ('Antibody clone C4 (antibody, human IgG1, lambda, V domains shown, Same VL changes as A4; VH carries S63T; also called C4 ANTI-CD40 ANTIBODY) VH: EVQLLESGGGLVQPGGSLRLSCAASGFTFSTYGMHWVRQAPGKGLEWLSYISGGSSYIFYADTVRGRFTISRDNSENALYLQMNSLRAEDTAVYYCARILRGGSGMDLWGQGTLVTVSS VL: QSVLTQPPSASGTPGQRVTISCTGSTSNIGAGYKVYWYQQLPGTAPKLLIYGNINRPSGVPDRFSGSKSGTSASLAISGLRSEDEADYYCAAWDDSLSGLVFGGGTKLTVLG', 'Allo DC/T IFN-γ Max', 9),
  ('Antibody clone A4 (antibody, human IgG1, lambda, V domains shown, Tested as purified antibody; full chains are assembled here from VH/VL plus these; also called A4 ANTI-CD40 ANTIBODY) VH: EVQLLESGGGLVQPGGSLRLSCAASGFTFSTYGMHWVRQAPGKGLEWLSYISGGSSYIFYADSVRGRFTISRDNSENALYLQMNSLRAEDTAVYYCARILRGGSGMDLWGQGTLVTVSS VL: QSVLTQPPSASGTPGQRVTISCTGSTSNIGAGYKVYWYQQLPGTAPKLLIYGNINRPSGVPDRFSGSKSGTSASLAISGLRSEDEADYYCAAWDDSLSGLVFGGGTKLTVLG', 'Allo DC/T IFN-γ Max', 8.9);

Allo DC/T IFN-γ Max in this record for Antibody clone B9 (antibody, human IgG1, lambda, V domains shown) VH: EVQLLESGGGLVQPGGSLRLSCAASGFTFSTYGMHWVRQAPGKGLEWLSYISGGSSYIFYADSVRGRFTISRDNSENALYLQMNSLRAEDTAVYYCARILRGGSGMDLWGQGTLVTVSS VL: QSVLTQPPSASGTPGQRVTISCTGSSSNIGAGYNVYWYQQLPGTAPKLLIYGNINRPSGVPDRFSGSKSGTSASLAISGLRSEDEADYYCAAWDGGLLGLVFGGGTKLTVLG : 8.5

Allo DC/T IFN-γ Max in this record for Antibody clone F6 (antibody, human IgG1, lambda, V domains shown) VH: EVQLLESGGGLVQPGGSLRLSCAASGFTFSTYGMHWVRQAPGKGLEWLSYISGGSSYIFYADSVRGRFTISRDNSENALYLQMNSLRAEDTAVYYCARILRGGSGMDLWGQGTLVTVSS VL: QSVLTQPPSASGTPGQRVTISCTGSSSNIGAGYDVYWYQQLPGTAPKLLIYRNINRPSGVPDRFSGSKSGTSASLAISGLRSEDEADYYCAAWDGSLLGLVFGGGTKLTVLG : 9
